Recorded values, source patent US20240360157A1.

Target: human JAK1 catalytic kinase (JH1) domain (Homo sapiens (Human))
Test: ADP-Glo Kinase Assay, recombinant JAK1 catalytic kinase (JH1) domain
Assay type: biochemical
Settings: recombinant JH1 domain 4 nM, 35 μM ATP, JAK3-342 peptide, mean, read-out: JAK1 biochem IC50 (nM) Mean
Method: Compounds of the disclosure were assessed for their ability to inhibit TYK2, JAK1, JAK2, and JAK3 activity. The inhibitory properties of the compounds of the disclosure described herein can be evidenced by testing in any one of the following protocols. The kinase activity of recombinantly generated catalytic kinase (also known as JH1) domain of human JAK1, JAK2, JAK3 and TYK2 were evaluated in a plate-based assay using the ADP-Glo™ Kinase Assay platform. […]
Recorded IC50 values for a group of compounds are listed next.
Lab book: enter the figure in nM, no units written.

Worked cases, IC50 given:
INSERT INTO assay_data (compound, numeric_result) VALUES
  ('O=C([C@@H]1CC1(F)F)N1C2CCC1CN(c1ccnn3cc(-c4cnn(C(F)F)c4)cc13)C2', 39),
  ('CC1(C)C(C(=O)N2C3CCC2CN(c2ncnn4cc(-c5cnn(C(F)F)c5)cc24)C3)C1(F)F (stereo not shown)', 3360),
  ('Cc1cc(-c2cc3c(N4CC5CCC(C4)N5C(=O)[C@@H]4C[C@H]4F)ncnn3c2)on1', 1160);

Turning now to a further compound:
Prompt line: Suppose we examine the compound CCC(=O)N1C2CCC1CN(c1ncnn3cc(-c4cnn(C(F)F)c4)cc13)C2 ; what IC50 value has been reported?
Response line: 2260

====

Recorded IC50 values for a group of molecules are listed next.
biological target: human JAK1 catalytic kinase (JH1) domain (Homo sapiens (Human)); assay: ADP-Glo Kinase Assay, recombinant JAK1 catalytic kinase (JH1) domain; format: biochemical; details: recombinant JH1 domain 4 nM, 35 μM ATP, JAK3-342 peptide, mean, read-out: JAK1 biochem IC50 (nM) Mean
Lab book: enter the figure in nM, no units written.

Worked cases, IC50 given:
INSERT INTO measurements (molecule, measurement_label, numeric_result) VALUES
  ('O=C([C@@H]1CC1(F)F)N1C2CCC1CN(c1ccnn3cc(-c4cnn(C(F)(F)F)c4)cc13)C2', 'IC50', 34),
  ('N#CC1CC1c1nc2c(N3CC4CCC(C3)N4C(=O)[C@@H]3C[C@H]3F)ccnc2[nH]1 (stereo partly shown)', 'IC50', 2180),
  ('Cc1cc(-c2cc3c(N4CC5CCC(C4)N5C(=O)[C@@H]4C[C@H]4F)ncnn3c2)ccn1', 'IC50', 316);

Prompt line: Suppose we examine the molecule N#Cc1ccc(-c2cc3c(N4CC5CCC(C4)N5C(=O)[C@@H]4C[C@H]4F)ncnc3[nH]2)cn1 ; what IC50 value has been reported?
Response line: 268

Prompt line: Suppose we examine the molecule COc1cc(-c2cc3c(N4CC5CCC(C4)N5S(=O)(=O)C4CC4)ccnn3c2)ccn1 ; what IC50 value has been reported?
Response line: 324

Prompt line: Suppose we examine the molecule O=C([C@@H]1C[C@H]1F)N1C2CCC1CN(c1ccnn3cc([C@H]4CC4(F)F)cc13)C2 (single isomer, unassigned) ; what IC50 value has been reported?
Response line: 2010

Prompt line: Suppose we examine the molecule O=C(C1CCC1(F)F)N1C2CCC1CN(c1ncnn3cc(-c4cnn(C(F)F)c4)cc13)C2 (stereo not shown) ; what IC50 value has been reported?
Response line: 1650

====

target: human TYK2 catalytic kinase (JH1) domain (Homo sapiens (Human)); assay: ADP-Glo Kinase Assay, recombinant TYK2 catalytic kinase (JH1) domain; type: biochemical; settings: recombinant JH1 domain 2 nM, 10 μM ATP, JAK3-974 peptide, mean, read-out: TYK2 biochem IC50 (nM) Mean
Sequence (P29597 897-1176): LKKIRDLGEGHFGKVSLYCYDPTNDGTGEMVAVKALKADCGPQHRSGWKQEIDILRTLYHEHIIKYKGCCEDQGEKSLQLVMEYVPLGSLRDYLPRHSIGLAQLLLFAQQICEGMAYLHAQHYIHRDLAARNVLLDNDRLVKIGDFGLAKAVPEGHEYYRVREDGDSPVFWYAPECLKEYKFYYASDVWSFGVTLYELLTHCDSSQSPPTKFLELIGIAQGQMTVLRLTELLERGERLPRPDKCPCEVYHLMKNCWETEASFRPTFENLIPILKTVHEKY
Lab note: anything with IC50 below 500 nM is marked 1; values at 500 nM or higher are marked 0.

Example entries begin here.
INSERT INTO measurements (compound, qualitative_label) VALUES
  ('N#Cc1cc(-c2cc3c(N4CC5CCC(C4)N5C(=O)[C@@H]4C[C@H]4F)ncnn3c2)ccn1 [Example 95]', 1),
  ('COc1cc(-c2cc3c(N4CC5CCC(C4)N5C(=O)[C@@H]4C[C@H]4F)ncnn3c2)ccn1 [Example 89]', 1),
  ('Cn1cc(-c2cc3c(N4CC5CCC(C4)N5C(=O)C4CC(F)(F)C4)ncnn3c2)cn1 [Example 70]', 1);

Prompt line: Here's an entry: O=C(C1CC1)N1C2CCC1CN(c1ncnn3cc(-c4cnn(CF)c4)cc13)C2 [Example 155] . Is its IC50 below 500 nM?
Response line: 1

Prompt line: Here's an entry: O=C(C1CC(F)C1)N1C2CCC1CN(c1ncnn3cc(-c4cnn(C(F)F)c4)cc13)C2 (stereo not drawn) [Example 48] . Is its IC50 below 500 nM?
Response line: 1

Prompt line: Here's an entry: O=C([C@@H]1C[C@H]1F)N1C2CCC1CN(c1ccnc3[nH]c(C4CC4)nc13)C2 [Example 208] . Is its IC50 below 500 nM?
Response line: 1

Prompt line: Here's an entry: N#C[C@@H]1C[C@@H]1C(=O)N1C2CCC1CN(c1ncnn3cc(-c4cnn(C(F)F)c4)cc13)C2 (racemic) [Example 47] . Is its IC50 below 500 nM?
Response line: 0

Prompt line: Here's an entry: CNc1ccc(-c2cc3c(N4CC5CCC(C4)N5C(=O)[C@@H]4C[C@H]4F)ccnn3c2)cn1 [Example 129] . Is its IC50 below 500 nM?
Response line: 1

====

molecular target: human TYK2 catalytic kinase (JH1) domain (Homo sapiens (Human)); assay: ADP-Glo Kinase Assay, recombinant TYK2 catalytic kinase (JH1) domain; format: biochemical; settings: recombinant JH1 domain 2 nM, 10 μM ATP, JAK3-974 peptide, mean, read-out: TYK2 biochem IC50 (nM) Mean
measurement_label: IC50

INSERT INTO measurements (compound, subject_of_test, result) VALUES
  ('O=C(C1CC1)N1C2CCC1CN(c1ncnn3cc(-c4ccc(Cl)nc4)cc13)C2 [Example 179]', 'human TYK2 catalytic kinase (JH1) domain (Homo sapiens (Human))', '684 nM');

Prompt line: Suppose we examine the compound O=C([C@@H]1C[C@H]1F)N1C2CCC1CN(c1ncnn3cc(-c4ccc(=O)n(C(F)F)c4)cc13)C2 [Example 110] ; what IC50 value has been reported?
Response line: 56.5 nM

Prompt line: Suppose we examine the compound O=C(C1C(F)(F)C12CC2)N1C2CCC1CN(c1ncnn3cc(-c4cnn(C(F)F)c4)cc13)C2 (stereo not shown) [Example 10] ; what IC50 value has been reported?
Response line: 207 nM

====

target: human JAK3 catalytic kinase (JH1) domain (Homo sapiens (Human)); assay: ADP-Glo Kinase Assay, recombinant JAK3 catalytic kinase (JH1) domain; assay type: biochemical; details: recombinant JH1 domain 0.3 nM, 4 μM ATP, JAK3-974 peptide, mean, read-out: JAK3 biochem IC50 (nM) Mean
Sequence (P52333 822-1111): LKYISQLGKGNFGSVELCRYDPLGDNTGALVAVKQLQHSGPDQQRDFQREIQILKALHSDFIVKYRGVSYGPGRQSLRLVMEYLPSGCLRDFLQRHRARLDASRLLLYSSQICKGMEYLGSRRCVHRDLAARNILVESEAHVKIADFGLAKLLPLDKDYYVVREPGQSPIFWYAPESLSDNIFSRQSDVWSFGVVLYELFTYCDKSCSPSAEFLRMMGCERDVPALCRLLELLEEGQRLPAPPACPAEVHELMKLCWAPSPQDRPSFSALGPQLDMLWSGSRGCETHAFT
Recorded IC50 values for a group of molecules are listed next.
Lab book: enter the figure in nM, no units written.

Prompt line: Suppose we examine the molecule COc1ncnc(-c2cc3c(N4CC5CCC(C4)N5C(=O)[C@@H]4C[C@H]4F)ccnn3c2)c1F ; what IC50 value has been reported?
Response line: 10000

Prompt line: Suppose we examine the molecule COc1cc(-c2cc3c(N4CC5CCC(C4)N5C(=O)[C@@H]4C[C@H]4F)ccnn3c2)c(F)cn1 ; what IC50 value has been reported?
Response line: 4000

====

target: human JAK1 catalytic kinase (JH1) domain (Homo sapiens (Human), UniProt P23458); assay: ADP-Glo Kinase Assay, recombinant JAK1 catalytic kinase (JH1) domain; format: biochemical; conditions: recombinant JH1 domain 4 nM, 35 μM ATP, JAK3-342 peptide, mean, read-out: JAK1 biochem IC50 (nM) Mean
Sequence (P23458 875-1153): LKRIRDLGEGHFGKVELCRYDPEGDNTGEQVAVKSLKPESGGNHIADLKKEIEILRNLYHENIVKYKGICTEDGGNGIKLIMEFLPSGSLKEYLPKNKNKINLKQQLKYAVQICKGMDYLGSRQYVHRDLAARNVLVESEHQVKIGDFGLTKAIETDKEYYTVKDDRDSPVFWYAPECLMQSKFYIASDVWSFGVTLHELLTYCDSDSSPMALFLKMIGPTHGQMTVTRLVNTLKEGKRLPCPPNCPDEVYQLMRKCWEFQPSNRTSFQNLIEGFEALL
Lab note: anything with IC50 below 70 nM is marked yes (1); values at 70 nM or higher are marked no (0).

INSERT INTO assay_data (compound, qualitative_label) VALUES
  ('O=C([C@@H]1C[C@H]1F)N1C2CCC1CN(c1ccnn3cc(-c4ccnc(C(F)F)c4)cc13)C2', 'yes (1)'),
  ('Cn1cc(-c2cc3c(N4CC5CCC(C4)N5C(=O)[C@H]4CC4(F)F)ncnn3c2)cn1', 'no (0)'),
  ('Cc1cc(-c2cc3c(N4CC5CCC(C4)N5C(=O)[C@@H]4C[C@H]4F)ccnn3c2)ncn1', 'no (0)'),
  ('O=C(C1CC1)N1C2CCC1CN(c1ncnn3cc(-c4ccccc4)cc13)C2', 'no (0)'),
  ('Cn1cc(-c2cc3c(N4CC5CCC(C4)N5C(=O)[C@H]4C[C@@H]4C#N)ncnn3c2)cn1 (racemic)', 'no (0)');

# evaluate next
Prompt line: Here's an entry: Cc1ccc(-c2nc3c(N4CC5CCC(C4)N5C(=O)[C@@H]4C[C@H]4F)ccnc3[nH]2)cn1 . Is its IC50 below 70 nM?
Response line: yes (1)
